molecular target: récepteur androgène (Rattus norvegicus); construct: Des aliquotes du surnageant obtenu (=cytosol), sont incubées 30 minutes et 24 heures à 0°C; from tissue; host or cells: prostate cytosol (105 000 g supernatant) of castrated male Sprague Dawley rats; test: Affinity for the androgen receptor: relative binding affinity (ARL), displacement of tritiated testosterone in prostate cytosol of castrated rats; parameters: species or system rats mâles Sprague Dawley EOPS; conditions: incubation 30 minutes at 0°C; testosterone = 100; ARL=100 (CH)/(CX)
Sequence (P15207 whole entry S389L): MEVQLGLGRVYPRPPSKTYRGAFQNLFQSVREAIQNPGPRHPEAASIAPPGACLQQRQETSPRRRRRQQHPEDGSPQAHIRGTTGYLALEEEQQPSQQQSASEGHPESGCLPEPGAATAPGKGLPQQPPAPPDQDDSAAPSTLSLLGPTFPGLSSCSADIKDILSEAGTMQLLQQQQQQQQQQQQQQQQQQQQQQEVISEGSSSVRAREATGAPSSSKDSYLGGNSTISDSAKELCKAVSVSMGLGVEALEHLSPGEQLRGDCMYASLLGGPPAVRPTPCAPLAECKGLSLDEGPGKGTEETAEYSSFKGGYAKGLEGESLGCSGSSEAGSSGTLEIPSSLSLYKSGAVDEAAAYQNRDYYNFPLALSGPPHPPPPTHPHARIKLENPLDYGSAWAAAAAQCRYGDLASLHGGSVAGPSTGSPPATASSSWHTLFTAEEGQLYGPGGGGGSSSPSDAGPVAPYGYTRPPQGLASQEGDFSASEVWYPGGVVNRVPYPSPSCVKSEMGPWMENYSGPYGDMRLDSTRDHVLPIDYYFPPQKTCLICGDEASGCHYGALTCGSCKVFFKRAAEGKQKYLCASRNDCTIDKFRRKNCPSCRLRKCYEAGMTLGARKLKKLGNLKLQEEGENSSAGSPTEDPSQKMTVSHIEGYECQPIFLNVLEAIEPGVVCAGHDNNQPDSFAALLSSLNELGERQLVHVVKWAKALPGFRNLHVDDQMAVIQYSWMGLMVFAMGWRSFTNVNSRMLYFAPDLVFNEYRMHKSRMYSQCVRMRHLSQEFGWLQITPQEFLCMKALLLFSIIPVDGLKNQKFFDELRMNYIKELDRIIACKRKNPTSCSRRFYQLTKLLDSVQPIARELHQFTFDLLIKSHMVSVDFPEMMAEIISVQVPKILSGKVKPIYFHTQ
Outcome label depends on ARL (affinité relative de liaison), Incubation : 30 minutes relative to 30: at/above gives 1, below gives 0.

# count of solved cases: 3
[[record]]
smiles = "CC1(C)NC(=S)N(c2ccc(C#N)c(C(F)(F)F)c2)C1=O"
classification = 1

[[record]]
smiles = "CN1C(=S)N(c2ccc(C#N)c(C(F)(F)F)c2)C(=S)C1(C)C"
classification = 1

[[record]]
smiles = "CN1C(=S)N(c2ccc(C#N)c(C(F)(F)F)c2)C(=O)C1(C)C"
classification = 1


QUERY: Please tell me: is the compound CC1(C)NC(=S)N(c2ccc(C#N)c(C(F)(F)F)c2)C1=N at or over 30 in terms of ARL (affinité relative de liaison), Incubation : 30 minutes?
RESULT: 0

QUERY: Please tell me: is the compound CN1C(=S)N(c2ccc(C#N)c(C(F)(F)F)c2)C(=N)C1(C)C at or over 30 in terms of ARL (affinité relative de liaison), Incubation : 30 minutes?
RESULT: 0

QUERY: Please tell me: is the compound CC(C)N1C(=O)N(c2ccc([N+](=O)[O-])c(C(F)(F)F)c2)C(=O)C1(C)C at or over 30 in terms of ARL (affinité relative de liaison), Incubation : 30 minutes?
RESULT: 0

QUERY: Please tell me: is the compound CCN1C(=O)N(c2ccc([N+](=O)[O-])c(C(F)(F)F)c2)C(=O)C1(C)C at or over 30 in terms of ARL (affinité relative de liaison), Incubation : 30 minutes?
RESULT: 0
